Cited source for all entries: patent US11066447B2

# Test system: A. fumigatus MMX 5280 ATCC MYA-3626
# experiment-summary: MIC/MEC assay (CLSI microdilution)
# Assay type: cell-based, Aspergillus fumigatus
# conditions: Aspergillus fumigatus, 48 h, Without Tween-80, read-out: MEC
Numbered stars: 1 amine (or outer) side, 2 acyl side, 3 side chain; on linkers, the order of the positions; unused ones are H or OH. Square brackets hold non-standard residues; d marks the D form. Peptide text beside a SMILES is read from it. X9 = CN1CCN(c2cccc(-c3cccc(C[C@@H](C(=O)[*:2])N(C)[*:1])c3)n2)CC1; X31 = CN([C@@H](Cc1cccc(-c2cccc(C(F)(F)F)c2)c1)C(=O)[*:2])[*:1]; X17 = CN([C@@H](Cc1cccc(-c2cnc3ccccc3c2)c1)C(=O)[*:2])[*:1]; Hmp(2R,3S) = CC[C@H](C)[C@@H](O)C(=O)O; NMeVal(β-OH) = CN[C@H](C(=O)O)C(C)(C)O; NMeV = CN[C@H](C(=O)O)C(C)C
Parameter: minimal effective concentration. Scope: all listed entries.

{"molecule": "CC[C@H](C)[C@@H]1NC(=O)[C@@H]2CCCN2C(=O)[C@H](Cc2cccc(-c3cccc(C(F)(F)F)c3)c2)N(C)C(=O)[C@H](Cc2ccccc2)NC(=O)[C@H](C(C)C)N(C)C(=O)[C@@H]([C@@H](C)CC)OC(=O)[C@H](C(C)(C)O)N(C)C(=O)[C@H](CC(C)C)NC(=O)[C@H](C(C)C)N(C)C1=O [Compound 4] (cyclo(F[X31]PI[NMeV]L[NMeVal(β-OH)][Hmp(2R,3S)][NMeV]))", "minimal effective concentration": "> 64 µg/mL"}
{"molecule": "CC[C@H](C)[C@@H]1NC(=O)[C@@H]2CCCN2C(=O)[C@H](Cc2cccc(-c3cccc(N4CCN(C)CC4)n3)c2)N(C)C(=O)[C@H](Cc2ccccc2)NC(=O)[C@H](C(C)C)N(C)C(=O)[C@@H]([C@@H](C)CC)OC(=O)[C@H](C(C)(C)O)N(C)C(=O)[C@H](CC(C)C)NC(=O)[C@H](C(C)C)N(C)C1=O [Compound 33] (cyclo(F[X9]PI[NMeV]L[NMeVal(β-OH)][Hmp(2R,3S)][NMeV]))", "minimal effective concentration": "0.5 µg/mL"}

Now look at this one.
Exercise: I am curious: what minimal effective concentration value has been reported for CC[C@H](C)[C@@H]1NC(=O)[C@@H]2CCCN2C(=O)[C@H](Cc2cccc(-c3cnc4ccccc4c3)c2)N(C)C(=O)[C@H](Cc2ccccc2)NC(=O)[C@H](C(C)C)N(C)C(=O)[C@@H]([C@@H](C)CC)OC(=O)[C@H](C(C)(C)O)N(C)C(=O)[C@H](CC(C)C)NC(=O)[C@H](C(C)C)N(C)C1=O [Compound 27] (cyclo(F[X17]PI[NMeV]L[NMeVal(β-OH)][Hmp(2R,3S)][NMeV])) ?
Solution: > 64 µg/mL
